# Tested on: E. coli
# assay protocol: Minimal Inhibitory Concentration (MIC) determination, 96 well plates
# Assay type: cell-based, Escherichia coli
# assay setup: Escherichia coli; HBI medium, 16 to 18 hours at 37°C; read-out: MIC (µg/ml) E. coli
assay readout: MIC (µg/mL)
Could you give me the number in µg/mL? Just the number is fine.

These recorded examples may help you get a feel for the data.
- molecule: "CCc1cc(Nc2cc(=O)n(CCCCN3CCN(c4c(F)cc5c(=O)c(C(=O)O)cn(CC)c5c4Cl)CC3)c(=O)[nH]2)ccc1C"
  MIC (µg/mL): 10
- molecule: "Cc1ccc(Nc2cc(=O)n(CCCCN3CCN(c4cc5c(cc4F)c(=O)c(C(=O)O)cn5C4CC4)C[C@H]3C)c(=O)[nH]2)cc1C"
  MIC (µg/mL): 5
- molecule: "O=C(O)c1cn(C2CC2)c2cc(N3CCN(CCCCn4c(=O)cc(Nc5ccc6c(c5)CCC6)[nH]c4=O)CC3)c(F)cc2c1=O"
  MIC (µg/mL): 10

Answer with MIC of CCc1cc(Nc2cc(=O)n(CCCCCCCN3CCN(c4cc5c(cc4F)c(=O)c(C(=O)O)cn5C4CC4)CC3)c(=O)[nH]2)ccc1C measured for E. coli.
40

Give reported MIC for Cc1ccc(Nc2cc(=O)n(CCCCN3CCN(c4c(F)cc5c(=O)c(C(=O)O)cn(C6CC6)c5c4F)C[C@H]3C)c(=O)[nH]2)cc1C (E. coli)
5

###

# Tested on: S. aureus
# assay protocol: Minimal Inhibitory Concentration (MIC) determination, 96 well plates
# Type: cell-based, Staphylococcus aureus
# assay setup: Staphylococcus aureus; HBI medium, 16 to 18 hours at 37°C; read-out: MIC (µg/ml) S. aureus
assay readout: MIC (µg/mL)
Write the value in µg/mL as a bare number.

In the examples that follow, each entry is paired with its recorded MIC.
- molecule: "CCc1cc(Nc2cc(=O)n(CCCCN3CCN(c4cc5c(cc4F)c(=O)c(C(=O)O)cn5-c4ccc(F)cc4F)CC3)c(=O)[nH]2)ccc1C [Compound 12]"
  unit info: "µg/mL"
  MIC: 0.313
- molecule: "CC1CN(c2c(F)cc3c(=O)c(C(=O)O)cn(C4CC4)c3c2F)CCN1CCCCn1c(=O)cc(Nc2ccc3c(c2)CCC3)[nH]c1=O (stereo not drawn) [Compound 92]"
  unit info: "µg/mL"
  MIC: 0.313

Continue with the molecule presented below.
Give me measured MIC, please, for this molecule: CCc1cc(Nc2cc(=O)n(CCCCN3CCN(c4cc5c(cc4F)c(=O)c(C(=O)O)cn5C4CC4)C[C@@H]3C)c(=O)[nH]2)ccc1C [Compound 100]
0.937

###

# Test system: E. coli
# assay protocol: Minimal Inhibitory Concentration (MIC) determination, 96 well plates
# Type: cell-based, Escherichia coli
# assay setup: Escherichia coli; HBI medium, 16 to 18 hours at 37°C; read-out: MIC (µg/ml) E. coli
assay readout: MIC (µg/mL)
Note: unit µg/mL is implicit; provide only the numeric part.

- molecule: "CCc1cc(Nc2cc(=O)n(CCCCN3CCN(c4cc5c(cc4F)c(=O)c(C(=O)O)cn5-c4ccc(F)cc4F)CC3)c(=O)[nH]2)ccc1C"
  assay readout: "MIC"
  unit info: "µg/mL"
  measured: 2.5
- molecule: "Cc1ccc(Nc2cc(=O)n(CCCCN3CCN(c4c(F)cc5c(=O)c(C(=O)O)cn(C6CC6)c5c4F)CC3C)c(=O)[nH]2)cc1C (stereo not drawn)"
  assay readout: "MIC"
  unit info: "µg/mL"
  measured: 2.5

Fill in reported MIC for this entry: CCc1cc(Nc2cc(=O)n(CCCCN3CCN(c4c(F)cc5c(=O)c(C(=O)O)cn(C6CC6)c5c4F)C[C@H]3C)c(=O)[nH]2)ccc1C
20

###

A collection of molecules and their measured log10 MIC
# Tested on: E. coli
# assay protocol: Minimal Inhibitory Concentration (MIC) determination, 96 well plates
# Assay type: cell-based, Escherichia coli
# assay setup: Escherichia coli; HBI medium, 16 to 18 hours at 37°C; read-out: MIC (µg/ml) E. coli
Scale: log10; quantity: MIC; unit before log: µg/mL

- molecule: "Cc1ccc(Nc2cc(=O)n(CCCCN3CCN(c4cc5c(cc4F)c(=O)c(C(=O)O)cn5C4CC4)CC3)c(=O)[nH]2)cc1C"
  log10 MIC: 1.00
- molecule: "CCc1cc(Nc2cc(=O)n(CCCCN3CCN(c4cc5c(cc4F)c(=O)c(C(=O)O)cn5C4CC4)C(C)C3)c(=O)[nH]2)ccc1C (stereo not drawn)"
  log10 MIC: 1.48
- molecule: "O=C(O)c1cn(C2CC2)c2cc(N3CCNCC3)c(F)cc2c1=O [cflxn, ciprofloxacin, reference compound]"
  log10 MIC: -1.11

Provide log10 MIC, recorded with E. coli, of Cc1ccc(Nc2cc(=O)n(CCCCN3CCN(c4cc5c(cc4F)c(=O)c(C(=O)O)cn5C4CC4)C[C@@H]3C)c(=O)[nH]2)cc1C
1.60

Enter recorded log10 MIC with E. coli for CCc1cc(Nc2cc(=O)n(CCCCN3CCN(c4cc5c(cc4F)c(=O)c(C(=O)O)cn5C4CC4)CC3)c(=O)[nH]2)ccc1C here.
0.40

###

# Tested on: S. aureus
# assay protocol: Minimal Inhibitory Concentration (MIC) determination, 96 well plates
# Type: cell-based, Staphylococcus aureus
# assay setup: Staphylococcus aureus; HBI medium, 16 to 18 hours at 37°C; read-out: MIC (µg/ml) S. aureus
# Experimental: The following methods were used to characterize representative compounds. Minimal Inhibitory Concentration (MIC) determinations. MIC values were determined in 96 well plates, with bacterial growth monitored at OD 600 nm in 200µl following an initial bacterial seeding at approximately 1x10^5 colony forming units (CFU)/ml. Each drug is evaluated at five concentrations, with five data points at each dilution. […] DNA polymerase activity (or inhibition thereof) was measured in a 96-well plate format. […]
Measured MIC accompanies every entry in the list below.
Write your answer as a measured quantity: the number, then the unit.

- molecule: "CCc1cc(Nc2cc(=O)n(CCCCCN3CCOC4CN(c5c(F)cc6c(=O)c(C(=O)O)cn(CC)c6c5F)CC43)c(=O)[nH]2)ccc1C (stereo not drawn)"
  MIC: "5 µg/mL"
- molecule: "CCc1cc(Nc2cc(=O)n(CCCCCNC3CCN(c4cc5c(cc4F)c(=O)c(C(=O)O)cn5C4CC4)C3)c(=O)[nH]2)ccc1C (stereo not drawn)"
  MIC: "20 µg/mL"

Annotate the molecule CCc1cc(Nc2cc(=O)n(CCCCCN3CCN(c4cc5c(cc4F)c(=O)c(C(=O)O)cn5C4CC4)CC3)c(=O)[nH]2)ccc1C with its measured MIC.
0.625 µg/mL

###

# System: E. fecium
# assay protocol: Minimal Inhibitory Concentration (MIC) determination, 96 well plates
# Assay type: cell-based, Enterococcus fecium
# assay setup: Enterococcus; HBI medium, 16 to 18 hours at 37°C; read-out: MIC (µg/ml) E. fecium
Decide using MIC alone. Strictly below 5 µg/mL: T. Equal to or above 5 µg/mL: F.

- molecule: "Cc1ccc(Nc2cc(=O)n(CCCCN3CCN(c4cc5c(cc4F)c(=O)c(C(=O)O)cn5C4CC4)CC3)c(=O)[nH]2)cc1C [Compound 65]"
  assay system: "E. fecium"
  classification: "T"
- molecule: "CCc1cc(Nc2cc(=O)n(CCCCN3CCN(c4c(F)cc5c(=O)c(C(=O)O)cn(C6CC6)c5c4F)CC3CO)c(=O)[nH]2)ccc1C (stereo not drawn) [Compound 91]"
  assay system: "E. fecium"
  classification: "T"
- molecule: "Cc1ccc(Nc2cc(=O)n(CCCCN3CCN(c4cc5c(cc4F)c(=O)c(C(=O)O)cn5C4CC4)C[C@H]3C)c(=O)[nH]2)cc1C [Compound 96]"
  assay system: "E. fecium"
  classification: "T"

MIC under 5 µg/mL? Item: CCc1cc(Nc2cc(=O)n(CCCCCN3CCCC4CN(c5cc6c(cc5F)c(=O)c(C(=O)O)cn6CC)CC43)c(=O)[nH]2)ccc1C (stereo not drawn) [Compound 80]
F

Is 5 µg/mL strictly greater than the molecule's reported MIC? molecule: Cc1ccc(Nc2cc(=O)n(CCCCN3CCN(c4c(F)cc5c(=O)c(C(=O)O)cn(C6CC6)c5c4F)CC3C)c(=O)[nH]2)cc1C (stereo not drawn) [Compound 94]
T

Say whether its MIC is strictly beneath 5 µg/mL. Entry: CCc1cc(Nc2cc(=O)n(CCCCN3CCN(c4nc5c(cc4F)c(=O)c(C(=O)O)cn5CC)CC3)c(=O)[nH]2)ccc1C [Compound 6]
T

I wonder whether CCn1cc(C(=O)O)c(=O)c2cc(F)c(N3CCNCC3)cc21 [nflxn, norfloxacin, reference compound] has MIC below 5 µg/mL. Can you tell?
F

Does this molecule meet the criterion MIC < 5 µg/mL? CCc1cc(Nc2cc(=O)n(CCCCN3CCN(c4cc5c(cc4F)c(=O)c(C(=O)O)cn5CC)CC3)c(=O)[nH]2)ccc1C [Compound 1]
T

Dear colleague, could you confirm whether MIC of CCc1cc(Nc2cc(=O)n(CCCCCN3CC4CN(c5cc6c(cc5F)c(=O)c(C(=O)O)cn6C5CC5)CC4C3)c(=O)[nH]2)ccc1C (stereo not drawn) [Compound 86] falls below 5 µg/mL? Thanks.
F

In plain terms, does CCc1cc(Nc2cc(=O)n(CCCCN3CCN(c4c(F)cc5c(=O)c(C(=O)O)cn(C6CC6)c5c4F)C[C@H]3C)c(=O)[nH]2)ccc1C [Compound 72] come in under 5 µg/mL for MIC?
T

Regarding CCc1cc(Nc2cc(=O)n(CCCCN3CCOC4CN(c5cc6c(cc5F)c(=O)c(C(=O)O)cn6C5CC5)CC43)c(=O)[nH]2)ccc1C (stereo not drawn) [Compound 87] , kindly confirm whether its MIC is beneath 5 µg/mL.
F

Check if MIC falls below 5 µg/mL for Cc1ccc(Nc2cc(=O)n(CCCCN3CCN(c4c(F)cc5c(=O)c(C(=O)O)cn(C6CC6)c5c4F)C[C@H]3C)c(=O)[nH]2)cc1C [Compound 98] .
T

API: query returns whether the molecule falls strictly under 5 µg/mL in MIC. Query: CCc1cc(Nc2cc(=O)n(CCCCCN3CCCC4CN(c5cc6c(cc5F)c(=O)c(C(=O)O)cn6C5CC5)CC43)c(=O)[nH]2)ccc1C (stereo not drawn) [Compound 82]
F

Does CCc1cc(Nc2cc(=O)n(CCCCN3CCN(c4c(F)cc5c(=O)c(C(=O)O)cn(CC)c5c4Cl)CC3)c(=O)[nH]2)ccc1C [Compound 5] have MIC strictly under 5 µg/mL?
T
